target: DNA topoisomerase II (Homo sapiens, UniProt P11388+Q02880); test: Inhibition of topoisomerase 2 in human MDA-MB-231 cells assessed as reduction in cell growth measured after 72 hrs by MTT assay; assay type: cell-based
MEASURED PARAMETER: IC50 (µM)

[1] COc1cccc2c1C(=O)c1c(O)c3c(c(O)c1C2=O)C[C@@](O)(C(=O)CO)C[C@@H]3O[C@H]1C[C@H](N)[C@H](O)[C@H](C)O1 [DOXORUBICIN]
[2] O=C1c2ccccc2C(=O)c2c(O)c(C(O)c3ccc(OC(F)(F)F)cc3)cc(O)c21 (centres undefined)
[3] N#Cc1ccc(C(O)c2cc(O)c3c(c2O)C(=O)c2ccccc2C3=O)cc1 (centres undefined)
[4] CC(C)=CC[C@@H](O)C1=CC(=O)c2c(O)ccc(O)c2C1=O [SHIKONIN]
Request: Descending by IC50 please, for everything listed above. State the ranking by listing the labels in the requested order.
Response: 2, 3, 4, 1
(2: 39.5 µM, 3: 26.9 µM, 4: 7.8 µM, 1: 3.8 µM)

###

target: DNA topoisomerase II (Homo sapiens, UniProt P11388+Q02880); experiment: Inhibition of topoisomerase 2 in human HepG2 cells assessed as reduction in cell growth measured after 72 hrs by MTT assay; format: cell-based
MEASURED PARAMETER: IC50 (µM)

Known results for molecules:
O=C1c2ccccc2C(=O)c2c(O)c(C(O)c3cc(Br)cs3)cc(O)c21 (stereo unspecified) : 23.9
O=C1c2ccccc2C(=O)c2c(O)c(C(O)c3ccc(C(F)(F)F)cc3)cc(O)c21 (stereo unspecified) : 14.9

[a] CC(C)=CC[C@@H](O)C1=CC(=O)c2c(O)ccc(O)c2C1=O [SHIKONIN]
[b] N#Cc1ccc(C(O)c2cc(O)c3c(c2O)C(=O)c2ccccc2C3=O)cc1 (stereo unspecified)
Request: Which entry has a larger number for IC50, a or b ? // caller expects the label of the chosen entry
Response: b

[a] O=C1c2ccccc2C(=O)c2c(O)c(C(O)c3ccc(Cl)cc3Cl)cc(O)c21 (stereo unspecified)
[b] O=C1c2ccccc2C(=O)c2c(O)c(C(O)c3ccc(Br)s3)cc(O)c21 (stereo unspecified)
[c] Cc1ccc(C(O)c2cc(O)c3c(c2O)C(=O)c2ccccc2C3=O)s1 (stereo unspecified)
Request: Reorder: IC50, max to min. Put the labels in the requested order and list them out.
Response: c, b, a
(c: 44.7 µM, b: 25.1 µM, a: 12.5 µM)

[1] O=C1c2ccccc2C(=O)c2c(O)c(C(O)c3ccc(Cl)s3)cc(O)c21 (stereo unspecified)
[2] COc1ccc(C(O)c2cc(O)c3c(c2O)C(=O)c2ccccc2C3=O)cc1Br (stereo unspecified)
Request: Which is greater in IC50, the first item 1 or the second item 2 ? Return value: the label identifying the chosen record.
Response: 1

###

target: DNA topoisomerase II (Homo sapiens, UniProt P11388+Q02880); assay: Inhibition of topoisomerase 2 in human A549 cells assessed as reduction in cell growth measured after 72 hrs by MTT assay; format: cell-based
MEASURED PARAMETER: IC50 (µM)

O=C1c2ccccc2C(=O)c2c(O)c(C(O)c3ccc(Cl)cc3Cl)cc(O)c21 (centres undefined) : 17.8

[a] O=C1c2ccccc2C(=O)c2c(O)c(C(O)c3ccc(Br)s3)cc(O)c21 (centres undefined)
[b] COc1cccc2c1C(=O)c1c(O)c3c(c(O)c1C2=O)C[C@@](O)(C(=O)CO)C[C@@H]3O[C@H]1C[C@H](N)[C@H](O)[C@H](C)O1
Request: Given a and b , report the one with the higher recorded IC50. Answer with the label corresponding to your selection.
Response: a
(a: 23 µM, b: 2.3 µM)
